Reported MIC values are given for each entry in this list.
- Test system: Penicillium commune
- Assay Text: Series dilution test in vitro, Penicillium commune
- Assay type: cell-based
- Experimental Setup: 28° C., 24 to 96 hours, read-out: Minimum inhibitory concentration (MIC)

CC(C)(C)C(=O)C(Oc1ccc(Cl)cc1)(c1ccccc1)n1cncn1 (centres unmarked) [Example 5] | > 64 µg/mL

Lab book: MIC of CC(C)(C)C(=O)C(Oc1ccc(Cl)cc1Cl)(c1ccccc1)n1cncn1 (centres unmarked) [Example 21] noted as > 64 µg/mL

Given item CC(C)(C)C(=O)C(Oc1ccc(F)cc1)n1cncn1 (centres unmarked) [Example 9] , the value recorded as its MIC is > 64 µg/mL

The recorded MIC for entry Cc1ccc(OC(C(=O)C(C)(C)C)n2cncn2)cc1C (centres unmarked) [Example 17] equals > 64 µg/mL

For this compound ( O=C(c1ccc(Cl)cc1)C(Oc1ccc(Cl)cc1Cl)n1cncn1 (centres unmarked) [Example 6] ), measured MIC is > 100 µg/mL

====

- System: Candida albicans
- Assay Text: Series dilution test in vitro, Candida albicans
- Format: cell-based
- Experimental Setup: w.s. (with 30% serum added), 28° C., 24 to 96 hours, read-out: Minimum inhibitory concentration (MIC)
Observation Type: MIC (µg/mL)
Supply the numeric figure in µg/mL, leaving out any unit text.

CC(C)(C)C(=O)C(Oc1ccc(-c2ccccc2)cc1)n1cncn1 (centres unmarked) [Example 12] | 100

CC(C)(C)C(=O)C(Oc1ccc(Cl)cc1Cl)n1cncn1 (centres unmarked) [Example 1] has a reported MIC of 40

====

- Test system: Penicillium commune
- Assay Text: Series dilution test in vitro, Penicillium commune
- Type: cell-based
- Experimental Setup: 28° C., 24 to 96 hours, read-out: Minimum inhibitory concentration (MIC)
The entries below are paired with their reported MIC.

# example entries with known answers
CC(C)(C)C(=O)C(Oc1ccc(Cl)cc1Cl)n1cncn1 (stereo not drawn) | > 100 µg/mL
CC(C)(C)C(=O)C(Oc1ccccc1)n1cncn1 (stereo not drawn) | > 64 µg/mL

Lab book: MIC of CC(C)(C)C(=O)C(Oc1cc(Cl)c(Cl)cc1Cl)n1cncn1 (stereo not drawn) noted as > 64 µg/mL

====

# MIC values compiled below
- System: Candida albicans
- Assay Text: Series dilution test in vitro, Candida albicans
- Type: cell-based
- Experimental Setup: w.s. (with 30% serum added), 28° C., 24 to 96 hours, read-out: Minimum inhibitory concentration (MIC)

Check out these entries, answers already filled in.
CC(C)(C)C(=O)C(Oc1ccc(Cl)cc1Cl)(c1ccccc1)n1cncn1 (stereo not drawn) [Example 21] | > 64 µg/mL
Cc1ccc(OC(C(=O)C(C)(C)C)n2cncn2)cc1C (stereo not drawn) [Example 17] | > 64 µg/mL

Note to self: MIC recorded for CC(C)(C)C(=O)C(Oc1ccc(F)cc1)n1cncn1 (stereo not drawn) [Example 9] was > 64 µg/mL

Numbers sourced from patent US4038404A.
